Reported D40 values follow for various molecules
- System: L1210
- test_summary: Antitumor activity against mouse L1210 cells […] in ip dosed C3H X DBA2 F1 hybrid mouse on day 0 and dosed once daily on days 1 to 5 assessed as increase in life span relative to control
- Type: functional
A complete answer gives the number and then names the unit.

In the examples that follow, each entry is paired with its recorded D40.
Measured D40 of "CCC[n+]1cccc2cc(NC(=O)c3ccc(-c4ccc(-c5ccc(-c6ccc(C(=O)Nc7ccc8c(ccc[n+]8CCC)c7)cc6)cc5)cc4)cc3)ccc21.Cc1ccc(S(=O)(=O)[O-])cc1.Cc1ccc(S(=O)(=O)[O-])cc1" : 17 mg/kg

Briefly, D40 measured for "CC[n+]1cccc(NC(=O)c2ccc(NC(=O)c3ccc(C(=O)Nc4ccc(C(=O)Nc5ccc[n+](CC)c5)cc4)c(N)c3)cc2)c1.Cc1ccc(S(=O)(=O)[O-])cc1.Cc1ccc(S(=O)(=O)[O-])cc1" : 2.4 mg/kg

Documented D40 of "CC(=O)Nc1ccc2c(Nc3ccc(NC(=O)c4ccc(Nc5cc[n+](C)cc5)cc4)cc3)cc[n+](C)c2c1.Cc1ccc(S(=O)(=O)[O-])cc1.Cc1ccc(S(=O)(=O)[O-])cc1" : 10 mg/kg

Lab note: measured D40 of "CCCC[n+]1cccc(C(=O)Nc2ccc(NC(=O)c3ccc(C(=O)Nc4ccc5c(ccc[n+]5CCCC)c4)cc3)cc2)c1.Cc1ccc(S(=O)(=O)[O-])cc1.Cc1ccc(S(=O)(=O)[O-])cc1" was 12 mg/kg

Briefly, D40 measured for "C[n+]1c2ccccc2c(Nc2ccc(NC(=O)Nc3ccc(NC(=N)NC(=N)N)cc3)cc2)c2ccc(N)cc21.Cl.[Cl-]" : 8 mg/kg

More entries:
Item: "CCCC[n+]1cccc2cc(NC(=O)c3ccc(C(=O)Nc4ccc5c(ccc[n+]5CCCC)c4)nc3)ccc21.Cc1ccc(S(=O)(=O)[O-])cc1.Cc1ccc(S(=O)(=O)[O-])cc1" | D40: 120 mg/kg

###

- test_summary: Lipophilic-hydrophilic balance, Rm of the compound by partition chromatography
- Assay type: physicochemical
We label by threshold. Values of Rm strictly beneath 0.5 are 1.0. Values of 0.5 and up are 0.0.

# count of solved cases: 4
Challenge: Strictly below 0.5 in Rm? "CC[n+]1cccc(NC(=O)c2ccc(NC(=O)c3ccc(C(=O)Nc4ccc(C(=O)Nc5ccc[n+](CC)c5)cc4)c(OC)c3)cc2)c1.Cc1ccc(S(=O)(=O)[O-])cc1.Cc1ccc(S(=O)(=O)[O-])cc1"
Response given: 0.0

Challenge: Just wondering, is Rm of "C[n+]1cccc(NC(=O)c2ccc(NC(=O)c3ccc(C(=O)Nc4ccc(C(=O)Nc5ccc[n+](C)c5)cc4)c4ccccc34)cc2)c1.Cc1ccc(S(=O)(=O)[O-])cc1.Cc1ccc(S(=O)(=O)[O-])cc1" below 0.5?
Response given: 1.0

Challenge: Quick check: does "CCCC[n+]1cccc(NC(=O)c2ccc(NC(=O)/C=C/c3ccc(C(=O)Nc4ccc(C(=O)Nc5ccc[n+](CCCC)c5)cc4)cc3)cc2)c1.Cc1ccc(S(=O)(=O)[O-])cc1.Cc1ccc(S(=O)(=O)[O-])cc1" have Rm under 0.5?
Response given: 1.0

Challenge: Decide: Rm of "C(=C\c1ccc(-[n+]2ccccc2)cc1)/c1ccc(/C=C/c2ccc(-[n+]3ccccc3)cc2)cc1.Cc1ccc(S(=O)(=O)[O-])cc1.Cc1ccc(S(=O)(=O)[O-])cc1" strictly below 0.5?
Response given: 1.0

Turning to the following molecule.
Challenge: Here's an entry: "C[n+]1ccccc1Nc1ccc(NC(=O)c2ccc(C(=O)Nc3ccc(Nc4cccc[n+]4C)cc3)cc2)cc1.Cc1ccc(S(=O)(=O)[O-])cc1.Cc1ccc(S(=O)(=O)[O-])cc1" . Is its Rm below 0.5?
Response given: 1.0
